Recorded values, source patent US20240116985A1.

# testSystem: full-length beta-Catenin (Uniprot ID P35222) (Homo sapiens)
# Construct: 10 nM full-length beta-Catenin (Uniprot ID P35222)
# Sequence (P35222 1-781): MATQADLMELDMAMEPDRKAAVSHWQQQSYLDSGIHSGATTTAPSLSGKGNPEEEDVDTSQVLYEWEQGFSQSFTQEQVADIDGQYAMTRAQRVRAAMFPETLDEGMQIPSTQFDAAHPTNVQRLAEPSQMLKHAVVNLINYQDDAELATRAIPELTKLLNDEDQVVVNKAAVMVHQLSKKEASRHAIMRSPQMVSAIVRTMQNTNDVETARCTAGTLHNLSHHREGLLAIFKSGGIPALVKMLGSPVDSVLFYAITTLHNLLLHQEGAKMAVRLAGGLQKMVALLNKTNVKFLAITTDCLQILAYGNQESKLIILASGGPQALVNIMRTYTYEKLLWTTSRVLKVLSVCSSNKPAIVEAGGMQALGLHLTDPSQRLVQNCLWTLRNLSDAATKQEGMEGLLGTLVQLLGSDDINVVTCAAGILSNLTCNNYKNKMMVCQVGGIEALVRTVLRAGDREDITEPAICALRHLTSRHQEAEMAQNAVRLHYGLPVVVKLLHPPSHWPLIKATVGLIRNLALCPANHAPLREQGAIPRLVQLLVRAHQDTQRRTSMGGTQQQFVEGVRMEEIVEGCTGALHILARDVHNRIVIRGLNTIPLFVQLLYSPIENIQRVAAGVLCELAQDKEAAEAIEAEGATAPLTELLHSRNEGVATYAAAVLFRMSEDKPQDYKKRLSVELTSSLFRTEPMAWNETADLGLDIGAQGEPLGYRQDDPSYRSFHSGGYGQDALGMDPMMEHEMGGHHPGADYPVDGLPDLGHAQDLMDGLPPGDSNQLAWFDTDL
# assayName: Fluorescence polarization IC50 (beta-catenin / 5FAM-TCF4 10-53 competition)
# Type: binding
# runConditions: fluorescence polarization; read-out: beta-Catenin FP IC50
pIC50: −log10 of the molar value.
measurementKind: pIC50

INSERT INTO results (compound, testresult) VALUES
  ('CC(=O)N1CCC[C@]12CC=CCCCC1(CCCC=CCCCOC(=O)N3CC[C@@](C(=O)N[C@@H](Cc4ccccc4Cl)C(=O)N[C@@H](Cc4csc5ccccc45)C(=O)N[C@@H](CCC(N)=O)C(N)=O)(C3)NC(=O)[C@H]([C@@H](C)O)NC(=O)[C@H](Cc3ccccc3)NC(=O)[C@H](C)NC(=O)[C@H](C)NC(=O)[C@H]([C@@H](C)O)NC(=O)[C@H](CC(=O)O)NC1=O)NC(=O)[C@H](CC(C)(C)C)NC(=O)[C@H](CC(=O)O)NC2=O (stereo partly drawn)', 7.60),
  ('CC(=O)N[C@]12CCN(C1)C(=O)OCC=CCCCC1(CCCC=CCCCOC(=O)N3CC[C@@](C(=O)N[C@@H](Cc4ccccc4C(F)(F)F)C(=O)N[C@@H](Cc4csc5ccccc45)C(=O)N[C@@H](CCC(N)=O)C(N)=O)(C3)NC(=O)[C@H](CC(C)C)NC(=O)[C@H](Cc3ccccc3)NC(=O)[C@H](C)NC(=O)[C@H](C)NC(=O)[C@H](Cc3cccc(C(=O)O)c3)NC(=O)[C@H](CC(=O)O)NC1=O)NC(=O)[C@H](CC(C)(C)C)NC(=O)[C@H](CC(=O)O)NC(=O)[C@H](C)NC2=O (stereo partly drawn)', 5.32),
  ('CC(=O)N1CCC[C@]12CC=CCCC1(CCC=CCCCCOC(=O)N3CC[C@@](C(=O)N[C@@H](Cc4ccsc4)C(=O)N[C@@H](Cc4csc5ccccc45)C(=O)N[C@@H](CCC(N)=O)C(N)=O)(C3)NC(=O)[C@H](CC(C)C)NC(=O)[C@H](Cc3ccccc3)NC(=O)[C@H](C)NC(=O)[C@H](C)NC(=O)[C@H](CC(=O)O)NC(=O)[C@H](CC(=O)O)NC1=O)NC(=O)[C@H](CC(C)(C)C)NC(=O)[C@H](CC(=O)O)NC2=O (stereo partly drawn)', 6.10),
  ('CC(=O)N1CCC[C@]12CCCCCCC1(CCCCCCCCOC(=O)N3CC[C@@](C(=O)N[C@@H](Cc4ccccc4)C(=O)N[C@@H](Cc4csc5ccccc45)C(=O)N[C@@H](CCC(N)=O)C(N)=O)(C3)NC(=O)[C@H](CC(C)C)NC(=O)[C@H](Cc3ccccc3)NC(=O)[C@H](C)NC(=O)[C@H](C)NC(=O)[C@H](CN(CC(=O)O)CC(F)(F)F)NC(=O)[C@H](CC(=O)O)NC1=O)NC(=O)[C@H](CC(C)(C)C)NC(=O)[C@H](CC(=O)O)NC2=O (stereo partly drawn)', 6.63),
  ('CC(=O)N1CCC[C@]12CC=CCCCC1(CCCC=CCCCOC(=O)N3CC[C@@](C(=O)N[C@@H](Cc4ccsc4)C(=O)N[C@@H](Cc4csc5ccccc45)C(=O)N[C@@H](C)C(N)=O)(C3)NC(=O)[C@H](C)NC(=O)[C@H](Cc3ccccc3)NC(=O)[C@H](C)NC(=O)[C@H](CCC(N)=O)NC(=O)[C@H](Cc3cccc(C(=O)O)c3)NC(=O)[C@H](CC(=O)O)NC1=O)NC(=O)[C@H](CC(C)(C)C)NC(=O)[C@H](CC(=O)O)NC2=O (stereo partly drawn)', 7.96),
  ('CC(=O)N1CCC[C@]12CCCCCCC[C@@](C)(C(=O)N[C@@H](CC(=O)O)C(=O)N[C@@H](CC(=O)O)C(=O)N[C@@H](C)C(=O)N[C@@H](C)C(=O)N[C@@H](Cc1ccccc1)C(=O)N[C@@H](CC(C)C)C(=O)NC(C)(C)C(=O)N[C@@H](Cc1ccsc1)C(=O)N[C@@H](Cc1csc3ccccc13)C(=O)N[C@@H](CCC(N)=O)C(N)=O)NC(=O)[C@H](CC(C)(C)C)NC(=O)[C@H](CC(=O)O)NC2=O', 6.25),
  ('CC(=O)N1CCC[C@]12CC=CCCCC1(CCCC=CCCCOC(=O)N3CC[C@@](C(=O)N[C@@H](Cc4ccccc4C(N)=O)C(=O)N[C@@H](Cc4csc5ccccc45)C(=O)N[C@@H](CCC(N)=O)C(N)=O)(C3)NC(=O)[C@H](Cc3ccccc3)NC(=O)[C@H](Cc3ccccc3)NC(=O)[C@H](C)NC(=O)[C@H](C)NC(=O)[C@H](CC(=O)O)NC(=O)[C@H](CC(=O)O)NC1=O)NC(=O)[C@H](CC(C)(C)C)NC(=O)[C@H](CC(=O)O)NC2=O (stereo partly drawn)', 7.96),
  ('CC(=O)N1CCC[C@]12CC=CCCCC1(CCCC=CCCCOC(=O)N3CC[C@@](C(=O)N[C@@H](Cc4ccccc4C(F)(F)F)C(=O)N[C@@H](Cc4csc5ccccc45)C(=O)N[C@@H](CCCCNC(C)C)C(N)=O)(C3)NC(=O)[C@H](CC(C)C)NC(=O)[C@H](Cc3ccccc3)NC(=O)[C@H](C)NC(=O)[C@H](C)NC(=O)[C@H](Cc3cccc(C(=O)O)c3)NC(=O)[C@H](CC(=O)O)NC1=O)NC(=O)[C@H](CC(C)(C)C)NC(=O)[C@H](CC(=O)O)NC2=O (stereo partly drawn)', 7.89),
  ('CC(=O)N1CCC[C@]12CC=CCCCC1(CCCC=CCCCOC(=O)N3CC[C@@](C(=O)N[C@@H](Cc4ccccc4)C(=O)N[C@@H](Cc4csc5ccccc45)C(=O)N[C@@H](CCC(N)=O)C(N)=O)(C3)NC(=O)[C@H](CC(C)C)NC(=O)[C@H](CO)NC(=O)[C@H](C)NC(=O)[C@H](CCCCNC(C)C)NC(=O)[C@H]([C@@H](C)O)NC(=O)[C@H](CC(=O)O)NC1=O)NC(=O)[C@H](CC(C)(C)C)NC(=O)[C@H](CC(N)=O)NC2=O (stereo partly drawn)', 5.16);
